Test: Cytotoxicity against hTERT-HME1 cells after 48 hrs by MTT assay
Type: cell-based, Homo sapiens
Details: human, hTERT-HME1 cells
MEASURE NAME: IC20 at 48 h (µM)
Could you give me the number in µM? Just the number is fine.

LINE NOTATION | IC20 at 48 h / µM
O=C(c1ccc(O)cc1)c1ccc2sc(=O)[nH]c2c1 | 73.1

Now for a further compound.
Give IC20 at 48 h for the following compound: O=C(c1ccc(O)c(O)c1)c1ccc2sc(=O)[nH]c2c1
43.5
